Assay read-out IC50; system under study: UniProt:P08170.
Sequence (P08170 whole entry, looked up): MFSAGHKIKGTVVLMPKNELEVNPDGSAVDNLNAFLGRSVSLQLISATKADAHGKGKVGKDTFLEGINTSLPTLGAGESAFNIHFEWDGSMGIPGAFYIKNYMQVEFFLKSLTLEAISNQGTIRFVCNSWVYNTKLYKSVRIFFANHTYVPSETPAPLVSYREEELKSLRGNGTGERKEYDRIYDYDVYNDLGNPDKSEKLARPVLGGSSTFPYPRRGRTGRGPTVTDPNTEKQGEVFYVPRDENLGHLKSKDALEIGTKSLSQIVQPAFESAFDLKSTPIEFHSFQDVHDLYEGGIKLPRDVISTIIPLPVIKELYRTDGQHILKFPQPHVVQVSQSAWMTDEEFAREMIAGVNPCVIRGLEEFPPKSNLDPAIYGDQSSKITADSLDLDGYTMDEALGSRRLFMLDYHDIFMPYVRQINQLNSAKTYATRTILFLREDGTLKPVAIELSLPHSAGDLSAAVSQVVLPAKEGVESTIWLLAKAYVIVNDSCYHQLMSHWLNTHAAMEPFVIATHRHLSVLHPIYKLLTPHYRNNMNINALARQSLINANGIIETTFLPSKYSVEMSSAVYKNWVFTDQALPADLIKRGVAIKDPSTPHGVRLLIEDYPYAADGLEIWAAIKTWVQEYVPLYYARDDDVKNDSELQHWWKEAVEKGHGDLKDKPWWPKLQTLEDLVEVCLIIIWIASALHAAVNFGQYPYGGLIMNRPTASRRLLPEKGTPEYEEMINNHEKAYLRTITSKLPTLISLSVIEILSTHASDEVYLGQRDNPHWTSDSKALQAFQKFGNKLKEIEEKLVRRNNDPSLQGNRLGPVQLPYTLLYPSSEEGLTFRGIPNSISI
Outcome measure: IC50 (µM)

Molecule	Readout unit	IC50
Cc1ccc(C(=N)NO)cc1 [N'-hydroxy-4-methylbenzimidamide]	µM	100
CC(C)Nc1nc(C2CCCCC2)no1	µM	100

A. COc1ccc(C(=N)NO)cc1 [N'-hydroxy-4-methoxybenzimidamide]
B. CC(=O)N(c1nc(Cc2ccc(Cl)cc2)no1)C1CCCCC1
**Query** Hi, I'm comparing A with B and wondering which one has the bigger number for IC50. Any idea? Answer by quoting the chosen item's label.
**Result** B

Taken from BindingDB's records for doi:10.1016/j.ejmech.2010.09.016.
